molecular target: human Fatty Acid Synthase (Homo sapiens, UniProt P49327); construct: made in house; assay: Human FAS enzyme assay (decrease in NADPH fluorescence); type: biochemical; settings: % inhibition at a concentration of 100 micromolar
Sequence (P49327 whole entry): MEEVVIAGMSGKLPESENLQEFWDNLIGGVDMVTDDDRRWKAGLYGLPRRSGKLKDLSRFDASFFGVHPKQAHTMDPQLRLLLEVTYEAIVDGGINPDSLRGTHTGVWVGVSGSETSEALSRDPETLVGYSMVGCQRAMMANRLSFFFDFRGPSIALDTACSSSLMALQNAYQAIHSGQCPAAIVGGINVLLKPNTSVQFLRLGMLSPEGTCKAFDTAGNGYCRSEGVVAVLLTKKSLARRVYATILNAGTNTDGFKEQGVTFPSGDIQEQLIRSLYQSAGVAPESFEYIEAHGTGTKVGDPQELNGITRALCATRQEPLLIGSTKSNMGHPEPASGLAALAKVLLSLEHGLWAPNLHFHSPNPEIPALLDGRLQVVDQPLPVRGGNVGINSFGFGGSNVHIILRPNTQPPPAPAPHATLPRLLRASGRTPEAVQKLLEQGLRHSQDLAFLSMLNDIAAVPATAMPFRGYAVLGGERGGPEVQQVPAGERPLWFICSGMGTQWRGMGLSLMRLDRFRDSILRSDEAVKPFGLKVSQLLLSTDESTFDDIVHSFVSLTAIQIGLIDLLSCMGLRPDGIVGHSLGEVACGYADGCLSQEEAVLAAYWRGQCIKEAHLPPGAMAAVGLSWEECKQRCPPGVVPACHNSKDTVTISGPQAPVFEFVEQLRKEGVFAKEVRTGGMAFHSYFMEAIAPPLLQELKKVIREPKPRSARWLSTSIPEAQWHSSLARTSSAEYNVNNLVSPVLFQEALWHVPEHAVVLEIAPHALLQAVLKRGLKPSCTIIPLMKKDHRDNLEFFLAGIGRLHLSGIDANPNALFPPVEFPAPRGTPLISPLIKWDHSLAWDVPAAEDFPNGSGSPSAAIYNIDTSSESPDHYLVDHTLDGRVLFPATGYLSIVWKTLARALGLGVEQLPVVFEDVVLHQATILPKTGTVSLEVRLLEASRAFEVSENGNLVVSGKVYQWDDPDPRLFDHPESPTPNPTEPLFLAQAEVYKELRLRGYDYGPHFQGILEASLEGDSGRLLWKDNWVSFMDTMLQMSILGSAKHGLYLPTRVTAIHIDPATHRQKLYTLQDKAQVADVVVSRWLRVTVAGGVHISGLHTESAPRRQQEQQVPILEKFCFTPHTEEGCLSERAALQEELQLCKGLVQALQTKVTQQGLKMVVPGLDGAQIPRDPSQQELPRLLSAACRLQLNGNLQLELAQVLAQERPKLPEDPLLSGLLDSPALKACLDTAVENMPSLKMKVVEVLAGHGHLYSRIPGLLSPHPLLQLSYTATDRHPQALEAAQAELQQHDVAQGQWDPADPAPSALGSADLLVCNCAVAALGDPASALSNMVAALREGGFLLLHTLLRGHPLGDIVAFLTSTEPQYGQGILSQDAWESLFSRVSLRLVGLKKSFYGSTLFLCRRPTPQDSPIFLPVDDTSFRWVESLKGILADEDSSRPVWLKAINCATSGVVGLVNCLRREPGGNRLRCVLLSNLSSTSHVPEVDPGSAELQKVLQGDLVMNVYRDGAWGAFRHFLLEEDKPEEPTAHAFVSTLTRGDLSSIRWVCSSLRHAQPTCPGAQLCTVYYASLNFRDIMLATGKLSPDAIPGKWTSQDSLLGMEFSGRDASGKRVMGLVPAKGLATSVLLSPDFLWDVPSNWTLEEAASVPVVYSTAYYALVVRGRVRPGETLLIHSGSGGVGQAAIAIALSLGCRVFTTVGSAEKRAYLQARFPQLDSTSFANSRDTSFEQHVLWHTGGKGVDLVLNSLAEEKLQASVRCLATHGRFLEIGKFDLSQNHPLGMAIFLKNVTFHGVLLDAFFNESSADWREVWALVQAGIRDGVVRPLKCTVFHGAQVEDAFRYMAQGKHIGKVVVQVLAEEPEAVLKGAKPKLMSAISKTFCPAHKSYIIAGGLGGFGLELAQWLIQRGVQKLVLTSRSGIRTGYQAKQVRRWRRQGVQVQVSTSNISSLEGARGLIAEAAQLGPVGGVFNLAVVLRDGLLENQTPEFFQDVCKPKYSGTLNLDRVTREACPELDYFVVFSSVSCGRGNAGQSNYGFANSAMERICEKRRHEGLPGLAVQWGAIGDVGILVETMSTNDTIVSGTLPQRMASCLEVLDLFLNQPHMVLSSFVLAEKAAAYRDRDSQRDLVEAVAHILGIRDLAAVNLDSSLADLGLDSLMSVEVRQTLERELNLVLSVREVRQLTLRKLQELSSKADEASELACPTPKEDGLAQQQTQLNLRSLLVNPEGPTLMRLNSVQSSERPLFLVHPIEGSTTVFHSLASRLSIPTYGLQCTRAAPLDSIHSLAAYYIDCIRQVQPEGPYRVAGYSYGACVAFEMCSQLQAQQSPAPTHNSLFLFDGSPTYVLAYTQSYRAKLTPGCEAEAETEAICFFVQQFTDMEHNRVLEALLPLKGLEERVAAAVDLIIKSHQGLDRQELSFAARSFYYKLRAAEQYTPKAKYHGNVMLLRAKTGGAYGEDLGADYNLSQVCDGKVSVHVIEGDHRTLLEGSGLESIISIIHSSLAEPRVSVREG
measurement kind: inhibition at 100 µM (%)
Enter your answer as a number in %; do not include the unit.

1. Cc1ccc(NS(=O)(=O)CC(F)(F)F)cc1C(=O)N1CCC(c2ccc(C#N)cc2)CC1 ... 79
2. Cc1ccc(C(=O)N2CCC(c3ccc(Cl)cc3)CC2)cc1NS(C)(=O)=O ... 84
3. COC(=O)C(C)S(=O)(=O)Nc1cc(C(=O)N2CCC(c3ccc(C#N)cc3)CC2)ccc1C (stereo not shown) ... 97
4. Cc1ccc(C(=O)N2CCC(c3ccc(C#N)cc3)CC2)cc1NS(=O)(=O)C1CCS(=O)(=O)C1 (stereo not shown) ... 92
5. Cc1ccc(C(=O)N2CCC(c3ccc(C#N)cc3)CC2)cc1NS(=O)(=O)CCCNS(=O)(=O)C(C)C ... 91

Exam item: For the compound `Cc1ccc(C(=O)N2CCC(c3ccc(C(=O)N4CCOCC4)cc3)CC2)cc1NS(C)(=O)=O` , what inhibition at 100 µM is on record?
Marked response: 86.1

Exam item: Now try `Cc1ccc(C(=O)N2CCC(c3ccc(C#N)cc3)CC2)cc1NS(=O)(=O)c1ccccc1` .
Marked response: 78

Exam item: Now try `CNC(=O)c1cccc(S(=O)(=O)Nc2cc(C(=O)N3CCC(c4ccc(C#N)cc4)CC3)ccc2C)c1` .
Marked response: 98

Exam item: Now try `Cc1nc(-c2ccc(C3CCN(C(=O)c4ccc(C)c(NS(C)(=O)=O)c4)CC3)cc2)no1` .
Marked response: 87

Exam item: Now try `CCCS(=O)(=O)Nc1cc(C(=O)N2CCC(c3ccc(C#N)cc3)CC2)ccc1C` .
Marked response: 92

Exam item: Now try `Cc1cc(C2CCN(C(=O)c3ccc(C)c(NS(C)(=O)=O)c3)CC2)ccc1C#N` .
Marked response: 60

Exam item: Now try `Cc1ccc(C(=O)N2CCC(c3ccc(C(N)=NO)cc3)CC2)cc1NS(C)(=O)=O` .
Marked response: 85

Exam item: Now try `Cc1ccc(Oc2ccc(C3CCN(C(=O)c4ccc(C)c(NS(C)(=O)=O)c4)CC3)cc2)nn1` .
Marked response: 80.2

Exam item: Now try `Cc1ccc(C(=O)N2CCC(c3ccc(C#N)cc3)CC2)cc1NS(=O)(=O)C1CC1` .
Marked response: 89

Exam item: Now try Cc1ccc(C(=O)N2CCC(c3ccc(C#N)cc3)CC2)cc1NS(=O)(=O)CC1(C)NC(=O)NC1=O (stereo in doubt) .
Marked response: 98

Exam item: Now try `Cc1ccc(C(=O)N2CCC(c3ccc(C#N)cc3)CC2)cc1NS(=O)(=O)Cc1cccc(F)c1` .
Marked response: 96

Exam item: Now try `Cc1ccc(C(=O)N2CCC(c3ccc(C#N)cc3)CC2)cc1NS(=O)(=O)c1ccc(N(C)C)nc1` .
Marked response: 98
